Source of measurements: PubChem BioAssay

Assay: 384-well plate pilot, post-Golgi transport modulator project, inhibition of yeast transport mutant growth (AID 636)
Details: absorbance 615 nm, about 18 h
Calls of active or inactive are those of the source. No stated cut-off is given here; in the data, active means inhibition above about 31%; inactive means the rest.
Entry note: the call must match one of TRUE (active), FALSE (inactive)

Reference set, count: 3
| molecule | assigned_category |
| --- | --- |
| CC(C)CN(CC(C)C)c1nc(N)c(C#N)c(CC#N)c1C#N | FALSE |
| COC(=O)Cn1c(=O)c2c(nc(Br)n2CC(=O)OC)n(C)c1=O | FALSE |
| c1ccc(-c2ccc(C(c3ccccc3)n3ccnc3)cc2)cc1 (stereo unspecified) | TRUE |

Q: Per the assay record, what outcome was assigned to CCN(CC)C(=O)C1CCN(CC2CC=CCC2)CC1 (stereo unspecified) ?
A: FALSE

Q: Per the assay record, what outcome was assigned to CCC(C(=O)NC(C)CCc1ccco1)n1nc(C)n2c(cc3occc32)c1=O (stereo unspecified) ?
A: FALSE

Q: Per the assay record, what outcome was assigned to CCCCn1c(SCC(=O)NCc2ccccc2)nc2ccc(N3CCOCC3)cc2c1=O ?
A: FALSE
